compounds and their reported survival
test system: Jurkat, thapsigargin-induced death, ATPlite luminescence, 24 h; test: ER stress cell death suppression in Jurkat – Jurkat T-cell leukemia, ATP content luminescence (AID 1354); conditions: measured here: survival at thapsigargin 15 uM; at 25 µM; stronger effect = higher value
The response must be a number in % with no trailing unit.

Prompt: // query survival value for entry COc1ccc(C2CC(=O)C3=C(C2)Nc2ccccc2NC3c2cccc(Br)c2)cc1OC (stereo unspecified)
Completion: 1

Prompt: Please give the measured survival for this compound: CSc1ccc(C2Nc3ccccc3NC3=C2C(=O)CC(c2ccccc2)C3)cc1 (stereo unspecified)
Completion: 4

Prompt: Consider the compound shown here: COc1ccc(C2CC(=O)C3=C(C2)Nc2ccccc2NC3c2ccccc2C(F)(F)F)cc1OC (stereo unspecified) What is its recorded survival?
Completion: 2

Prompt: Requested field: survival. Item: COc1ccc(C2CC(=O)C3=C(C2)Nc2ccccc2NC3c2cccc(Oc3ccccc3)c2)cc1OC (stereo unspecified)
Completion: 7

Prompt: Can you share its survival? I mean this compound: O=C1CC(c2ccccc2)CC2=C1C(c1c(F)cccc1Cl)Nc1ccccc1N2 (stereo unspecified)
Completion: 1

Prompt: Which survival is reported for this compound? CCOc1cccc(C2Nc3ccccc3NC3=C2C(=O)CC(c2ccc(OC)cc2)C3)c1 (stereo unspecified)
Completion: 1

Prompt: Find the recorded survival belonging to CC1(C)CC(=O)C2=C(C1)Nc1ccccc1NC2c1ccc(-c2ccccc2)cc1 (stereo unspecified) and report it.
Completion: 0

Prompt: survival lookup needed for COc1ccc(C2CC(=O)C3=C(C2)Nc2ccccc2NC3c2cccc(C(F)(F)F)c2)cc1OC (stereo unspecified) , thanks.
Completion: 1

Prompt: Could you share which survival value was measured for CCOc1cc(C2Nc3ccccc3NC3=C2C(=O)CC(c2ccc(OC)cc2)C3)cc(Cl)c1O (stereo unspecified) ?
Completion: 2

Prompt: Look at this compound and give its reported survival. COc1ccc(C2CC(=O)C3=C(C2)Nc2ccccc2NC3c2cc(C)ccc2C)cc1 (stereo unspecified)
Completion: 2

Prompt: survival for CCCOc1ccc(C2Nc3ccccc3NC3=C2C(=O)CC(c2ccc(OC)c(OC)c2)C3)cc1 (stereo unspecified) ?
Completion: 1
